Molecular target: SALL4 ZFC4 R900W (HT-SELEX) (Mus musculus, UniProt Q8BX22 870-940, R900W)
Sequence: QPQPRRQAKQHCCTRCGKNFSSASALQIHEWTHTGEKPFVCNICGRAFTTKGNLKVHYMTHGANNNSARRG
Assay: HT-SELEX; high values mean tight binding
Conditions: protein: recombinant; vector His6-GST; dsDNA, one strand shown
measure-name: log10 of binding signal (log10 of the value in fold-change vs cycle 0)
Note: values are log10 of binding signal expressed in fold-change vs cycle 0.

// recorded log10 of binding signal for `CCGCGA` : -0.99

// recorded log10 of binding signal for `GGCCTA` : -0.52

// recorded log10 of binding signal for `ACGTGG` : -0.34

// recorded log10 of binding signal for `CCAACG` : -0.41

// recorded log10 of binding signal for `CGCGCA` : -1.27

// recorded log10 of binding signal for `AGCTAC` : -0.11

// recorded log10 of binding signal for `AAGTTG` : 0.12

// recorded log10 of binding signal for `AGGGGG` : -0.43

// recorded log10 of binding signal for `CCAGCA` : -0.44

// recorded log10 of binding signal for `GGTCTA` : -0.10

// recorded log10 of binding signal for `AGTGCA` : -0.15

// recorded log10 of binding signal for `ACCTCG` : -0.30

// recorded log10 of binding signal for `AGAACC` : -0.03

// recorded log10 of binding signal for `ATGCAG` : -0.12

// recorded log10 of binding signal for `ATGTGG` : -0.10

// recorded log10 of binding signal for `AGGAGG` : -0.15

// recorded log10 of binding signal for `GCAACC` : -0.44

// recorded log10 of binding signal for `AGGATA` : 0.23

// recorded log10 of binding signal for `GCTGTA` : -0.19

// recorded log10 of binding signal for `GAACCC` : -0.25

// recorded log10 of binding signal for `AACAGT` : 0.15

// recorded log10 of binding signal for `TATACA` : 0.30

// recorded log10 of binding signal for `GCTTGA` : -0.13

// recorded log10 of binding signal for `ACCATC` : -0.03

// recorded log10 of binding signal for `CTGGCA` : -0.55

// recorded log10 of binding signal for `CCGGCC` : -1.32

// recorded log10 of binding signal for `GGCAAA` : -0.34

// recorded log10 of binding signal for `AATGCC` : -0.25

// recorded log10 of binding signal for `GATTTA` : 0.26

// recorded log10 of binding signal for `ACTCAG` : -0.01

// recorded log10 of binding signal for `CGCACA` : -0.64

// recorded log10 of binding signal for `CTGCAA` : -0.19

// recorded log10 of binding signal for `CGAAGA` : -0.10

// recorded log10 of binding signal for `CCTGAG` : -0.21

// recorded log10 of binding signal for `CCTGTC` : -0.27

// recorded log10 of binding signal for `ACTTGG` : -0.04

// recorded log10 of binding signal for `GTAAAA` : 0.24

// recorded log10 of binding signal for `AACACA` : 0.11

// recorded log10 of binding signal for `ATTCTG` : 0.13

// recorded log10 of binding signal for `GACTTA` : 0.15

// recorded log10 of binding signal for `CCCACC` : -0.55

// recorded log10 of binding signal for `CGCCTC` : -0.82

// recorded log10 of binding signal for `GTGGAA` : -0.08

// recorded log10 of binding signal for `ATATGG` : 0.12

// recorded log10 of binding signal for `CAGTAG` : -0.04

// recorded log10 of binding signal for `ACTACA` : 0.15
